IC50 reference
Test System: DNA dC->dU-editing enzyme APOBEC-3A (Homo sapiens, UniProt P31941)
Sequence (P31941 whole entry): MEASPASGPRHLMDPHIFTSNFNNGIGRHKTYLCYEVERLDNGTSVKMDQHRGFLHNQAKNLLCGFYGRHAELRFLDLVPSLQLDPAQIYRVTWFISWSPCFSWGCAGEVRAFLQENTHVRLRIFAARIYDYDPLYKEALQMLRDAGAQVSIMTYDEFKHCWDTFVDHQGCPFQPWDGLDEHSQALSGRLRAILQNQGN
Assay Protocol: SAR analysis of small molecule inhibitors of APOBEC3A DNA Deaminase via a fluorescence-based single-stranded DNA deaminase assay.
Format: functional
Test Context: read-out: IC50_Mean
The source made the active and inactive calls.
Assay Endpoint: IC50

[
  {
    "Smiles Representation": "Cc1ccc(-c2csc3n[nH]c(=S)n23)cc1",
    "Experimental Result": "> 99 µM (inactive)"
  },
  {
    "Smiles Representation": "Nn1c(-c2cccc(Br)c2)n[nH]c1=S",
    "Experimental Result": "> 99 µM (inactive)"
  },
  {
    "Smiles Representation": "CCn1ncc(-c2ccnc3cc(C(=O)O)nn23)c1C",
    "Experimental Result": "10.7 µM (inactive)"
  }
]

---

Test System: Ubiquitin-conjugating enzyme E2 N (Homo sapiens, UniProt P61088);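 further: Dose-response confirmation in a TR-FRET assay detecting UBC13-driven polyubiquitin chain formation, inhibition measured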
Sequence (P61088 whole entry): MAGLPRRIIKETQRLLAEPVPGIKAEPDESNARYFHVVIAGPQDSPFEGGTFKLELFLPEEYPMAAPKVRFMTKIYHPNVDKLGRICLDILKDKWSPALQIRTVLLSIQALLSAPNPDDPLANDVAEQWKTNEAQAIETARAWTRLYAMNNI
Type: functional
Active and inactive are the calls of the source.
Possible outcomes: Y (active), N (inactive)

[
  {
    "Compound": "CC(C)N1CCc2c(sc(NC(=O)c3ccc(S(=O)(=O)N4CCc5ccccc54)cc3)c2C(N)=O)C1",
    "Test System": "Ubiquitin-conjugating enzyme E2 N (Homo sapiens, UniProt P61088)",
    "Group": "N"
  },
  {
    "Compound": "COc1ccc(C(CCN2CCCC(C)C2)c2c(OC)cc(OC)c3c(-c4ccccc4)cc(=O)oc23)cc1 (centres undefined)",
    "Test System": "Ubiquitin-conjugating enzyme E2 N (Homo sapiens, UniProt P61088)",
    "Group": "N"
  },
  {
    "Compound": "CN1CC2=Cc3ccccc3OC23Oc2ccccc2C=C3C1",
    "Test System": "Ubiquitin-conjugating enzyme E2 N (Homo sapiens, UniProt P61088)",
    "Group": "Y"
  },
  {
    "Compound": "CNCC(O)c1cc(F)c(OCc2ccccc2)c(OCc2ccccc2)c1F (centres undefined)",
    "Test System": "Ubiquitin-conjugating enzyme E2 N (Homo sapiens, UniProt P61088)",
    "Group": "N"
  }
]

---

Test System: UniProtKB Q9H0H5
Sequence (Q9H0H5 whole entry): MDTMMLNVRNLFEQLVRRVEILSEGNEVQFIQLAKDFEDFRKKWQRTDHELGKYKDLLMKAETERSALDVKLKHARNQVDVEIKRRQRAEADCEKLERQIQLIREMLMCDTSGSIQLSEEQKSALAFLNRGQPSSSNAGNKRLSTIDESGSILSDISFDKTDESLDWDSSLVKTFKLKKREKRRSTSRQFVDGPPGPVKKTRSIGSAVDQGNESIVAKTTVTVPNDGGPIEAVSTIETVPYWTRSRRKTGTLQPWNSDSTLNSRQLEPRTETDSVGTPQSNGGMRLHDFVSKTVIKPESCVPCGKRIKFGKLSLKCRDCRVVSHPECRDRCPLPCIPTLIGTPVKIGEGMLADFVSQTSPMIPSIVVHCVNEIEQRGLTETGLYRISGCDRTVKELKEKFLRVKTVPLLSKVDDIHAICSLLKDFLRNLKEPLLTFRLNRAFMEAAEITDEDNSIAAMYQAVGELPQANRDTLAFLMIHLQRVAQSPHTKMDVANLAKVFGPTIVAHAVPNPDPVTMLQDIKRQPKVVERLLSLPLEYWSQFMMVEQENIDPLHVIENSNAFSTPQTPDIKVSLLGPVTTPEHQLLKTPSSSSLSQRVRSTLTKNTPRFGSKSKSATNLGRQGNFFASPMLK
Assay Protocol: MgcRacGAP GTPase-activating activity inhibitors, confirmation, biochemical, ADP Hunter fluorescence, primary and confirmatory (AID 624330)
Format: functional
The source made the active and inactive calls.

[
  {
    "Compound": "Oc1cc(Br)ccc1/C=N/c1ccc(N2CCCCC2)cc1",
    "IC50": "5.88 µM (active)"
  },
  {
    "Compound": "COc1ccc(OC(=O)C2CC(=O)N(c3ccc(C)cc3)C2)cc1 (configuration not stated)",
    "IC50": "48.3 µM (active)"
  },
  {
    "Compound": "CCn1c(SCC(=O)Nc2ccc(N(C)C)cc2)nnc1-c1cccc(C)c1",
    "IC50": "65.2 µM (active)"
  },
  {
    "Compound": "COc1cc(/C=N/N=C2/C(=O)Nc3ccccc32)cc(OC)c1O",
    "IC50": "50.9 µM (active)"
  },
  {
    "Compound": "COc1ccc(NC2CCCN(C(=O)C3(C)CCCCC3)C2)cc1 (configuration not stated)",
    "IC50": "80.7 µM (active)"
  },
  {
    "Compound": "Nc1ccc(Nc2ccncc2)cc1",
    "IC50": "247 µM (active)"
  },
  {
    "Compound": "CC(=O)Nc1ccc(S(=O)(=O)Nc2nc3ccccc3nc2Nc2ccc(C(=O)O)c(O)c2)cc1",
    "IC50": "166 µM (active)"
  }
]

---

Test System: Heat shock factor protein 1 (Mus musculus, UniProt P38532)
Sequence (P38532 whole entry): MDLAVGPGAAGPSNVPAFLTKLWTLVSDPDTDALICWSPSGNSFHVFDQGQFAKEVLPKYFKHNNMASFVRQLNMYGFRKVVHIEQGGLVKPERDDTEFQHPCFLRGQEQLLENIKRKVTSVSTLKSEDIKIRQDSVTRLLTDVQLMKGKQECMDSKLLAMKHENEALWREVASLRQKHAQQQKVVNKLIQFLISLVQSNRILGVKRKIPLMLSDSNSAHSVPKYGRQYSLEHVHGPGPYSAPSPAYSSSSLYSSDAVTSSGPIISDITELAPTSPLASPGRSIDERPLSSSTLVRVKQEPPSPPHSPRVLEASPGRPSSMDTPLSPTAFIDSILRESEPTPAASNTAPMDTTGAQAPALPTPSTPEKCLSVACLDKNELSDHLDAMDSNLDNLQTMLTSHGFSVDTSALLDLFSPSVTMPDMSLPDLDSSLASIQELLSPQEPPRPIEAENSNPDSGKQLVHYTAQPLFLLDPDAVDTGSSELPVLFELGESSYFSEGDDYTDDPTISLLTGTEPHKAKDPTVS
Assay Protocol: inhibition of MG132-induced HSE-luciferase signal, confirmation, cell-based, NIH3T3, luminescence, dose retest (AID 2382);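 further: NIH3T3 fibroblasts with HSF1-driven luciferase reporter stressed by proteasome inhibitor MG132; luminescence from HSF1-driven luciferase expression after 8 hours of MG132 stress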
Assay type: functional
Activity calls are given as the source filed them.
Readings of EC50 for the listed compounds
Assay Endpoint: EC50

[
  {
    "Compound": "Nn1c(-c2cccc(Br)c2)n[nH]c1=S",
    "Assay Endpoint": "EC50",
    "Experimental Result": "108 µM (active)"
  },
  {
    "Compound": "Cc1cc(C)cc(OCC(O)CN2CC(C)OC(C)C2)c1 (centres undefined)",
    "Assay Endpoint": "EC50",
    "Experimental Result": "32.9 µM (active)"
  },
  {
    "Compound": "CC1(C)CC(=O)C(=NNc2ccc(OC(F)F)cc2)C(=O)C1",
    "Assay Endpoint": "EC50",
    "Experimental Result": "> 195 µM (not active)"
  },
  {
    "Compound": "Cc1cc(C)c(NC(=O)Nc2ccc3c(c2)OCO3)c(C)c1",
    "Assay Endpoint": "EC50",
    "Experimental Result": "> 195 µM (not active)"
  }
]

---

Test System: UniProtKB Q06710
Sequence (Q06710 whole entry): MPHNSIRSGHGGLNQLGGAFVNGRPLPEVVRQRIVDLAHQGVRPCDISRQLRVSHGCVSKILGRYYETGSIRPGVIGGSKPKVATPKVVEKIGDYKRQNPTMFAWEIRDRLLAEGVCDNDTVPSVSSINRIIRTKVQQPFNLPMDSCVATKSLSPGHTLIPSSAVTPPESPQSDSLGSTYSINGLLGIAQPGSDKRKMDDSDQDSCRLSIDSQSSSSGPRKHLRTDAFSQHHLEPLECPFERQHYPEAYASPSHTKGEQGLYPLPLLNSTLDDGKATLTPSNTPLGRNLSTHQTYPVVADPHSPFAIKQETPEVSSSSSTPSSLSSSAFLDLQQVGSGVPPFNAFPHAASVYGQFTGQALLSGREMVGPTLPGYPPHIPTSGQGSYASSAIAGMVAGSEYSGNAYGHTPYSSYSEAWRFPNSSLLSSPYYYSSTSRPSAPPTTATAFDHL
Assay Protocol: inhibitors of PAX8-driven TPO luciferase reporter, dose response, RMG-I cells, cherry-pick (AID 687027);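 further: luciferase reporter driven by Pax8 target thyroperoxidase promoter measured by SteadyGlo luminescence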
Type: functional, cell-based
Active and inactive are the calls of the source.
Assay Endpoint: AC50

[
  {
    "Molecule": "C[C@@H]1CCCCO[C@@H](CN(C)Cc2ccc(C(F)(F)F)cc2)[C@H](C)CN([C@@H](C)CO)C(=O)c2cc(NS(=O)(=O)c3ccccc3)ccc2O1",
    "Assay Endpoint": "AC50",
    "Experimental Result": "4.66 µM (active)"
  },
  {
    "Molecule": "CC(=O)O[C@H]1C[C@H](O[C@H]2[C@@H](O)C[C@H](O[C@H]3[C@@H](O)C[C@H](O[C@H]4CC[C@@]5(C)[C@H](CC[C@@H]6[C@@H]5C[C@@H](O)[C@]5(C)[C@@H](C7=CC(=O)OC7)CC[C@]65O)C4)O[C@@H]3C)O[C@@H]2C)O[C@H](C)[C@H]1O[C@@H]1O[C@H](CO)[C@@H](O)[C@H](O)[C@H]1O [LANATOSIDE C]",
    "Assay Endpoint": "AC50",
    "Experimental Result": "0.801 µM (active)"
  },
  {
    "Molecule": "C[C@@H]1CN([C@H](C)CO)S(=O)(=O)c2ccc(-c3ccc(C#N)cc3)cc2O[C@@H]1CN(C)Cc1cccc(F)c1",
    "Assay Endpoint": "AC50",
    "Experimental Result": "3.4 µM (active)"
  },
  {
    "Molecule": "C[C@H](CO)N1C[C@H](C)[C@H](CN(C)S(=O)(=O)c2ccc(Cl)cc2)Oc2c(NC(=O)Nc3ccc(F)cc3)cccc2C1=O",
    "Assay Endpoint": "AC50",
    "Experimental Result": "10.2 µM (active)"
  },
  {
    "Molecule": "C[C@@H]1CN([C@@H](C)CO)C(=O)Cc2cc(NC(=O)Cc3cn(C)c4ccccc34)ccc2O[C@H]1CN(C)Cc1ccc(Oc2ccccc2)cc1",
    "Assay Endpoint": "AC50",
    "Experimental Result": "7.45 µM (active)"
  }
]

---

Test System: Cytochrome P450 3A4 (Homo sapiens, UniProt P08684);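 further: CYP3A4 tested as one member of a cytochrome P450 panel screen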
Sequence (P08684 whole entry): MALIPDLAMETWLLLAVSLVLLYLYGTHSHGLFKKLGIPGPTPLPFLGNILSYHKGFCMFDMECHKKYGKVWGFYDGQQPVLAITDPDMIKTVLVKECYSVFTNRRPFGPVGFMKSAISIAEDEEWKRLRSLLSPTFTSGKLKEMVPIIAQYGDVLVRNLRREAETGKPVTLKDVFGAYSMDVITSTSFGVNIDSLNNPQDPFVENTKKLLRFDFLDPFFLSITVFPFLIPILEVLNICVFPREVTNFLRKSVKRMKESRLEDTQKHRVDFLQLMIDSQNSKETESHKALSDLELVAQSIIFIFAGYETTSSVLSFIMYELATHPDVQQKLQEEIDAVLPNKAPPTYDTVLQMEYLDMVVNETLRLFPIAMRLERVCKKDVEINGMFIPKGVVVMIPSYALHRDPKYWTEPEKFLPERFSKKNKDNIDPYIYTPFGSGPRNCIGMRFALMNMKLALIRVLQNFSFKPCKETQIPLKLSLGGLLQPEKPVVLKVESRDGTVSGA
Parameter AC50: see the listing below.
Assay Endpoint: AC50

[
  {
    "Compound": "COc1ccc(OC)c2nc(O)c(CCNS(=O)(=O)c3ccccc3)cc12",
    "Assay Endpoint": "AC50",
    "Experimental Result": "14.1 µM (inconclusive)"
  },
  {
    "Compound": "COc1ccccc1CN1CCC2(CC1)CCN(C(=O)c1csnn1)CC2",
    "Assay Endpoint": "AC50",
    "Experimental Result": "31.6 µM (inconclusive)"
  },
  {
    "Compound": "O=c1cnc2cnc(N3CCOCC3)nc2n1Cc1ccc(F)cc1",
    "Assay Endpoint": "AC50",
    "Experimental Result": "12.6 µM (inconclusive)"
  },
  {
    "Compound": "c1ccc(N2CC[C@@]3(CCCNC3)C2)nc1",
    "Assay Endpoint": "AC50",
    "Experimental Result": "15.8 µM (inconclusive)"
  },
  {
    "Compound": "O=C(CSc1nnc(-c2cccs2)n1-c1ccccc1)N1CCCC1",
    "Assay Endpoint": "AC50",
    "Experimental Result": "28.2 µM (inconclusive)"
  },
  {
    "Compound": "O=C(c1ccco1)N1CCC[C@@]2(CCN(Cc3ccncc3)C2)C1",
    "Assay Endpoint": "AC50",
    "Experimental Result": "15.8 µM (inconclusive)"
  },
  {
    "Compound": "CN(C)c1ncc2nc(-c3ccccc3)c(=O)n(C[C@H]3CCCO3)c2n1",
    "Assay Endpoint": "AC50",
    "Experimental Result": "12.6 µM (inconclusive)"
  },
  {
    "Compound": "COc1cccc(C(=O)NCCN2CCN(c3ccc(Cl)cc3)CC2)c1",
    "Assay Endpoint": "AC50",
    "Experimental Result": "15.8 µM (inconclusive)"
  },
  {
    "Compound": "O=C(NCCCCc1ccccc1)C1CC(c2ccccc2[N+](=O)[O-])=NO1 (configuration not stated)",
    "Assay Endpoint": "AC50",
    "Experimental Result": "14.1 µM (inconclusive)"
  },
  {
    "Compound": "CCC/C=C(\\CCC)C(NC(=O)c1ccc(-c2ccccc2)cc1)c1ccc(C(=O)OC)cc1 (configuration not stated)",
    "Assay Endpoint": "AC50",
    "Experimental Result": "6.31 µM (inconclusive)"
  },
  {
    "Compound": "CCCCNCCOCCSc1ccc(Cl)cc1",
    "Assay Endpoint": "AC50",
    "Experimental Result": "14.1 µM (inconclusive)"
  },
  {
    "Compound": "Oc1ccnc2cccc(Cc3ccccc3)c12",
    "Assay Endpoint": "AC50",
    "Experimental Result": "28.2 µM (inconclusive)"
  },
  {
    "Compound": "CCOC(=O)n1c(=O)n(Cc2c(Cl)cccc2Cl)c2ccccc21",
    "Assay Endpoint": "AC50",
    "Experimental Result": "15.8 µM (inconclusive)"
  },
  {
    "Compound": "CN(C)C(=O)N1CCCC(C(=O)NCCc2ccccc2)C1 (configuration not stated)",
    "Assay Endpoint": "AC50",
    "Experimental Result": "39.8 µM (inconclusive)"
  },
  {
    "Compound": "O=C(NC12CC3CC(CC(C3)C1)C2)c1ccc(COc2ccc(Cl)cc2[N+](=O)[O-])o1",
    "Assay Endpoint": "AC50",
    "Experimental Result": "15.8 µM (inconclusive)"
  },
  {
    "Compound": "COc1cccc(Nc2ncc3ncc(=O)n(C4CC4)c3n2)c1",
    "Assay Endpoint": "AC50",
    "Experimental Result": "6.31 µM (inconclusive)"
  },
  {
    "Compound": "O=C1C(O)=C(C(C2=C(O)C(=O)c3ccccc3C2=O)c2ccc(Cl)cc2)C(=O)c2ccccc21",
    "Assay Endpoint": "AC50",
    "Experimental Result": "3.16 µM (inconclusive)"
  }
]
